Recorded CC50 values for a group of compounds are listed next.
# test-name: Cytotoxicity against african green monkey Vero cells assessed as reduction in cell viability after 24 to 36 hrs by MTS-based CPE reduction assay
# condition: chlorocebus sabaeus
value-kind: CC50 (µM)

[[record]]
smiles_entry = "CN(C)c1ccc(C(=O)NNc2c(F)cccc2F)cc1"
inequality_symbol = ">"
recorded_measurement = 275

[[record]]
smiles_entry = "CCc1ccc(C(=O)NNc2c(Cl)cccc2Cl)cc1"
inequality_symbol = ">"
recorded_measurement = 259

[[record]]
smiles_entry = "CCOc1ccc(C(=O)NNc2c(F)cccc2F)cc1"
inequality_symbol = ">"
recorded_measurement = 274

[[record]]
smiles_entry = "Cc1ccc(C(=O)NNc2c(Br)cccc2Br)cc1"
inequality_symbol = "="
recorded_measurement = 146

[[record]]
smiles_entry = "CCCc1ccc(C(=O)NNc2c(F)cccc2F)cc1"
inequality_symbol = ">"
recorded_measurement = 276

[[record]]
smiles_entry = "CC(C)(C)c1ccc(C(=O)NNc2c(Cl)cccc2Cl)cc1"
inequality_symbol = "="
recorded_measurement = 30.8

[[record]]
smiles_entry = "CC(C)(C)c1ccc(C(=O)NNc2c(F)cccc2F)cc1"
inequality_symbol = "="
recorded_measurement = 150

[[record]]
smiles_entry = "CC(C)(C)c1ccc(C(=O)NNc2c(Br)cccc2Br)cc1"
inequality_symbol = ">"
recorded_measurement = 188

[[record]]
smiles_entry = "CN(C)c1ccc(C(=O)NNc2c(Cl)cccc2Cl)cc1"
inequality_symbol = ">"
recorded_measurement = 247

[[record]]
smiles_entry = "Cc1cccc(C)c1NNC(=O)c1ccc(C(C)(C)C)cc1"
inequality_symbol = "="
recorded_measurement = 166

[[record]]
smiles_entry = "COc1ccccc1C(=O)NNc1c(Br)cccc1Br"
inequality_symbol = "="
recorded_measurement = 109

[[record]]
smiles_entry = "COc1ccc(C(=O)NNc2c(Br)cccc2Br)cc1"
inequality_symbol = ">"
recorded_measurement = 200

